Value source: patent US20240034774A1

Target: gp120 CAAN (HIV (CAAN))
Test: single-point ELISA at EC50 conc. of A-1
Parameter: ELISA A450 (A450)
Report the value in A450 with no unit label.

Input: Reported ELISA A450, binder 1.35.35-1 (antibody, human IgG1, kappa, V domains shown) VH: QVQLVQSGAEVKKPGASVRVSCKASGYNIRDYFMHWWRQAPGQGLQWVGWINPKTGQPNNPRQFQGRVTMTRHASWDFDTFSFYMDLSRLRSDDTATYFCARQRTDYWDFDVWGQGTMVTVSS VL: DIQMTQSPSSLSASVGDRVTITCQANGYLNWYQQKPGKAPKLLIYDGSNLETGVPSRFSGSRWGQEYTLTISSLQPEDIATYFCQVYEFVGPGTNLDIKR : ____
Output: 0.67
